# testedTarget: Protein deacetylase HDAC6 (Homo sapiens, UniProt Q9UBN7)
# assay: Inhibition of HDAC6 (unknown origin)
propertyName: IC50 (nM)
Write it as a number; the unit nM goes unstated.

[ask] Fill blank: measured IC50 of the compound `O=C(CCCCn1cc(-c2ccc3ncnc(Nc4ccccc4F)c3c2)nn1)NO` is ____.
[reply] 4.3

---

propertyName: pIC50
# pIC50 is unitless: minus log10 of the molar concentration; print number only

[ask] Give the reported pIC50 for `Cc1c(NC(=O)OC[C@@H]2COCCN2)cn2ncnc(Nc3ccc4c(cnn4Cc4cccc(F)c4)c3)c12` (system: UniProt P04626).
Sequence (P04626 whole entry): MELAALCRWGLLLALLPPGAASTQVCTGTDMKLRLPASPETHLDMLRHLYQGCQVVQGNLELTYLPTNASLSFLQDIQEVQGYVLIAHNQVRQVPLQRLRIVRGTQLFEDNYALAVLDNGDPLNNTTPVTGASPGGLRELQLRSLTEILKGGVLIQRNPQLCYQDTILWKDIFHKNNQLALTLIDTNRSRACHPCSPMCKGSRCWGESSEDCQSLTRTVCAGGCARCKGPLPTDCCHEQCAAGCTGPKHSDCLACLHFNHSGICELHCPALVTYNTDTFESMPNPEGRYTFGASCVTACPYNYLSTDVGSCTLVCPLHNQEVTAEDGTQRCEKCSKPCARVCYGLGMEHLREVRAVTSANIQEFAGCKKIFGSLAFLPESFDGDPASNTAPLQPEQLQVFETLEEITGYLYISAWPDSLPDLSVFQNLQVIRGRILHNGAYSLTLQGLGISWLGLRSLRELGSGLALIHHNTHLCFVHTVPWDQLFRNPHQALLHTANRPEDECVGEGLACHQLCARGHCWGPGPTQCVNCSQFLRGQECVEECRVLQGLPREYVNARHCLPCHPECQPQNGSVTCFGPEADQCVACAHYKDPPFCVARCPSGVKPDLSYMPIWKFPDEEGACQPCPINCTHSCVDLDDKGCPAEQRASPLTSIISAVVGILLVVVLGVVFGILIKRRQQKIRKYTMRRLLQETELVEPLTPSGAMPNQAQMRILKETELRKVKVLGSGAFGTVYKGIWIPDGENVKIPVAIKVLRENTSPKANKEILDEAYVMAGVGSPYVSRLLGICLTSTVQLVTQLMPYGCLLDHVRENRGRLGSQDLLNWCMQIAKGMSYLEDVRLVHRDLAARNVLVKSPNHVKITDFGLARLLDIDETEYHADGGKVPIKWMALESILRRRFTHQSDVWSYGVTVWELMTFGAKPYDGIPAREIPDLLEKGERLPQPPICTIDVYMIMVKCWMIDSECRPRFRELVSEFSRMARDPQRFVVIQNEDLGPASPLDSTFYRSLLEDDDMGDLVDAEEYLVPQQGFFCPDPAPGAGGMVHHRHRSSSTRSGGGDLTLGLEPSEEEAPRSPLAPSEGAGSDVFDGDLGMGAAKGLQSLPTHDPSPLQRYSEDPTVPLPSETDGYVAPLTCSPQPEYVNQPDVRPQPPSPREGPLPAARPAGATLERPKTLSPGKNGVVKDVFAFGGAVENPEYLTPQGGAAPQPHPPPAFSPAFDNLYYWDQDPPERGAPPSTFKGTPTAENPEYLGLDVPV
[reply] 7.52

---

# testedTarget: Nuclear factor NF-kappa-B complex (Homo sapiens, UniProt P19838+Q00653+Q04206)
# Sequence (P19838 1-433 limits assumed): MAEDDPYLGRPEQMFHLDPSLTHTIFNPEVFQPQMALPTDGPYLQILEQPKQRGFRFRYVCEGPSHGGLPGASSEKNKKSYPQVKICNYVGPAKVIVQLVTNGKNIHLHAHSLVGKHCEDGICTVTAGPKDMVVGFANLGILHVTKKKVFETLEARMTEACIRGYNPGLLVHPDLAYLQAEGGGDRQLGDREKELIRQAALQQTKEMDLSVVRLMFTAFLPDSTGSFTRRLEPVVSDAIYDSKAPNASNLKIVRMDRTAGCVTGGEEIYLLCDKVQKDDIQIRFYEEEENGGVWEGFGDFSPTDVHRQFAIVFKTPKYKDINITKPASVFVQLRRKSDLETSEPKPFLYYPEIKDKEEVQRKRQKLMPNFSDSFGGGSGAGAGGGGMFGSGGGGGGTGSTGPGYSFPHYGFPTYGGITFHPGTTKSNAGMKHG
# Sequence (Q00653 1-454 limits assumed): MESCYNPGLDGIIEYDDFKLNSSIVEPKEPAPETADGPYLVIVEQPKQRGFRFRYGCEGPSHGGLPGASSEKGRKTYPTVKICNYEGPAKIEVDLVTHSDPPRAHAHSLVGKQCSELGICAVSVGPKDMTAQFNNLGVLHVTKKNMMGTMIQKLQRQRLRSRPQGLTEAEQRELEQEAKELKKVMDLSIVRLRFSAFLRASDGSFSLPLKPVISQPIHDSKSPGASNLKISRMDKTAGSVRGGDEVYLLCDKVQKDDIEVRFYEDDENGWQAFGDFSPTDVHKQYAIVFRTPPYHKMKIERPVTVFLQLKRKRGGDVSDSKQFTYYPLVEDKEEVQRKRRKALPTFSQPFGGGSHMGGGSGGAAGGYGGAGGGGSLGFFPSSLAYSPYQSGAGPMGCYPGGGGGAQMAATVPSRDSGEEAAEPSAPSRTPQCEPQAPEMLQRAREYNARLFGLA
# Sequence (Q04206 whole entry): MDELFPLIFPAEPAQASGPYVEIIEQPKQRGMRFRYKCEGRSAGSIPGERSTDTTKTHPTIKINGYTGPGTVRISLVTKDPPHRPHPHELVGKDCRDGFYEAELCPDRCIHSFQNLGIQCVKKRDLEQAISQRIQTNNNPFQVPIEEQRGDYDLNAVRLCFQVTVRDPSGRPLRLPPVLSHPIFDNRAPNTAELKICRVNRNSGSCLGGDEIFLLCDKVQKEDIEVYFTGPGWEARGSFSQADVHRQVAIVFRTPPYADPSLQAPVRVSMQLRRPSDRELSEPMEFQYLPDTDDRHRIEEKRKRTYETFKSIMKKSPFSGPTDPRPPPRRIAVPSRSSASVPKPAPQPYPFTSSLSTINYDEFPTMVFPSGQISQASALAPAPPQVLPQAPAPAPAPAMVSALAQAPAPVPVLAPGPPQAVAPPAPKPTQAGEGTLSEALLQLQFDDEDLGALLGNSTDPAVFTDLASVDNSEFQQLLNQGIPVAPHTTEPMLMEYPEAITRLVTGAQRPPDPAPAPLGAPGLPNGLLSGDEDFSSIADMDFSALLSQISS
# assay: Inhibition of NF-kappaB (unknown origin)
propertyName: IC50 (nM)
Write it as a number; the unit nM goes unstated.

[ask] Fill blank: measured IC50 of the molecule `Fc1cc(F)cc(NC(=S)Nc2ccc3ncnc(Nc4cccc(Cl)c4)c3c2)c1` is ____.
[reply] 300

[ask] Fill blank: measured IC50 of the molecule `FC(F)(F)c1csc(NC(=S)Nc2ccc3ncnc(Nc4cccc(Cl)c4)c3c2)n1` is ____.
[reply] 600

[ask] Fill blank: measured IC50 of the molecule `S=C(NCc1ccccc1)Nc1ccc2ncnc(Nc3cccc(Br)c3)c2c1` is ____.
[reply] 4100

---

# testedTarget: Epidermal growth factor receptor (Homo sapiens, UniProt P00533)
# Sequence (P00533 whole entry): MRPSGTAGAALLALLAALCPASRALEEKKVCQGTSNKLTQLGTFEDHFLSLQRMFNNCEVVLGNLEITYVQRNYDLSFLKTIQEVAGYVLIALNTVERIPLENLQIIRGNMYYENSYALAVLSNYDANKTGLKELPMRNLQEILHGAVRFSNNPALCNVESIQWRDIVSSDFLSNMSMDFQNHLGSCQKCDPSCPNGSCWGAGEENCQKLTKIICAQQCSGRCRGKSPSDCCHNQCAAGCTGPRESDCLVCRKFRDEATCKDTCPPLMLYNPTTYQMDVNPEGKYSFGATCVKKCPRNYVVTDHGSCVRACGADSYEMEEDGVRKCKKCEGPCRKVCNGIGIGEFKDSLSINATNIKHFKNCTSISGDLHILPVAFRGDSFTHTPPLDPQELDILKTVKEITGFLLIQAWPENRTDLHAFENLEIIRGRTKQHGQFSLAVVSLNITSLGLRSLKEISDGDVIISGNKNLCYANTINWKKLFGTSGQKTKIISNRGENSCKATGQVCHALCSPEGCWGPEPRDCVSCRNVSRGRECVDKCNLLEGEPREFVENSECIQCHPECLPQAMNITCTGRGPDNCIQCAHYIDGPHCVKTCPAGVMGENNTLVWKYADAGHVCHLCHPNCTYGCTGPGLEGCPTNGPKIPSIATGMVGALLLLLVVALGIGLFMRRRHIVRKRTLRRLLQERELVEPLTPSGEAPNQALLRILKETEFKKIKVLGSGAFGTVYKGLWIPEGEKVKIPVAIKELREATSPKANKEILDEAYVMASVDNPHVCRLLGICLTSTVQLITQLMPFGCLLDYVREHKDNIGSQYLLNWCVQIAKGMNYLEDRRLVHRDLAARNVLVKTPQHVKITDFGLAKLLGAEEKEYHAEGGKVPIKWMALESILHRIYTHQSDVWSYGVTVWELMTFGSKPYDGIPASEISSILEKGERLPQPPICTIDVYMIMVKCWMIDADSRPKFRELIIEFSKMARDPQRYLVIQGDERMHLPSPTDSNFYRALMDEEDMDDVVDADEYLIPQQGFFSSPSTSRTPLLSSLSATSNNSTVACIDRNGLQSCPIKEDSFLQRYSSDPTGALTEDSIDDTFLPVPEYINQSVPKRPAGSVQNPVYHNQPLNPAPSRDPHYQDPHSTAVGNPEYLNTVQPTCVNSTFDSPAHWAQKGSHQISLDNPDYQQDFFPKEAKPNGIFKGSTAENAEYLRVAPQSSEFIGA
# assay: Inhibition of EGFR (unknown origin) using biotin as substrate incubated for 2 hrs by HTRF assay
propertyName: IC50
Answer with the value and then the unit.

[ask] Fill blank: measured IC50 of the compound `COc1cc2ncnc(Oc3ccc(NC(=O)Nc4cccc(C(F)(F)F)c4)c4ccccc34)c2cc1OC` is ____.
[reply] 83.9 nM

---

Assign IC50 to each entry below.
# testedTarget: Epidermal growth factor receptor (Homo sapiens)
# assay: Inhibition of EGFR (unknown origin)
Write it as a number; the unit nM goes unstated.

[ask] Fill blank: measured IC50 of the molecule `COc1ccc(/C=C\C(=O)c2ccc(Br)c3cc(-c4ccc(F)cc4)oc23)cc1` is ____.
[reply] 90

[ask] Fill blank: measured IC50 of the molecule `O=C(/C=C\c1ccc(OC(F)(F)F)cc1)c1ccc(Br)c2cc(-c3ccc(F)cc3)oc12` is ____.
[reply] 120

[ask] Fill blank: measured IC50 of the molecule `O=C(CCCCn1cc(-c2ccc3ncnc(Nc4ccccc4F)c3c2)nn1)NO` is ____.
[reply] 10.3

---

# testedTarget: Epidermal growth factor receptor (Homo sapiens)
# assay: Inhibition of EGFR (unknown origin) by microplate reader
propertyName: pIC50
# pIC50 is unitless: minus log10 of the molar concentration; print number only

[ask] Fill blank: measured pIC50 of the compound `CCOCCSc1nc(-c2ccccc2Cl)nn1CCOCC` is ____.
[reply] 7.06

[ask] Fill blank: measured pIC50 of the compound `O=C(Nc1ccccc1C(=O)N/N=C/c1ccc(O)cc1O)c1ccco1` is ____.
[reply] 7.07

[ask] Fill blank: measured pIC50 of the compound `NS(=O)(=O)c1ccc(NC(=O)c2ccccc2NC(=O)c2ccco2)cc1` is ____.
[reply] 7.51

---

# testedTarget: Tubulin
# assay: Inhibition of tubulin polymerization (unknown origin)
# Type: protein-complex assay, Homo sapiens
propertyName: IC50 (nM)
Write it as a number; the unit nM goes unstated.

[ask] Fill blank: measured IC50 of the molecule `NS(=O)(=O)c1ccc(NC(=O)c2ccccc2NC(=O)c2ccco2)cc1` is ____.
[reply] 108

[ask] Fill blank: measured IC50 of the molecule `COc1cc(Nc2ncnc3cc(-c4ccc(C)cc4)sc23)cc(OC)c1OC` is ____.
[reply] 710

[ask] Fill blank: measured IC50 of the molecule `O=C(Nc1ccccc1C(=O)N/N=C/c1ccc(O)cc1O)c1ccco1` is ____.
[reply] 87.6

Provenance of the data: ChEMBL document CHEMBL5137005
